molecular target: human GnRH receptor (Homo sapiens, UniProt P30968); construct: expressed in transfected cells; host or cells: HEK 293 (hGnRH-R/293, from Dr. Stuart Sealfon); assay: Radioligand binding, 125I-GnRH-A displacement, membranes of HEK 293 cells with human GnRH receptor; settings: 1 h, repeat of % Inhib. at 1 uM; read-out: Repeats @ 1 uM hGnRH
Sequence (P30968 whole entry): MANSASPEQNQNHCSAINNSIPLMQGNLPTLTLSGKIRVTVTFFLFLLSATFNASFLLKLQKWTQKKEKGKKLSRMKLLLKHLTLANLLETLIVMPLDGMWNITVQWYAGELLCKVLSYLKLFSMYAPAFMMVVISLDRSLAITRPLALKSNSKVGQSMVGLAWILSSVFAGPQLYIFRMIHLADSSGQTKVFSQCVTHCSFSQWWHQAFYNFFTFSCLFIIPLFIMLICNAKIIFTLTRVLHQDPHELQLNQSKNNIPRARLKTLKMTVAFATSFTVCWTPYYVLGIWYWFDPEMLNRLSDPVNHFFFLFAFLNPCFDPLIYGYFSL
Label label 1 when inhibition at 1 µM is at or above 20%; otherwise label label 0.

Cc1cc2c(cc1Cc1ccc(C(=O)NC(C#N)c3ccccc3)o1)C(C)(C)CCC2(C)C (stereo not drawn) [drawing 1233] = label 1
Cc1cc2c(cc1Cc1ccc(C(=O)N[C@H](C)[C@H](O)c3ccc(O)cc3)o1)C(C)(C)CCC2(C)C = label 0
Cc1cc2c(cc1Cc1ccc(C(=O)N(CCCO)Cc3ccccc3[N+](=O)[O-])o1)C(C)(C)CCC2(C)C = label 0
Cc1cc2c(cc1Cc1ccc(C(=O)NCc3cccc4c3Cc3ccccc3-4)o1)C(C)(C)CCC2(C)C = label 0
Cc1cc2c(cc1Cc1ccc(C(=O)NCCOCCO)o1)C(C)(C)CCC2(C)C [drawing 1068] = label 1
CCOc1ccccc1CNC(=O)c1ccc(Cc2cc3c(cc2C)C(C)(C)CCC3(C)C)o1 [drawing 1096] = label 1
COc1cccc(CNC(=O)c2ccc(Cc3cc4c(cc3C)C(C)(C)CCC4(C)C)o2)c1 [drawing 1188] = label 1
Cc1cc2c(cc1Cc1ccc(C(=O)NCCc3c[nH]c4ccc(Cl)cc34)o1)C(C)(C)CCC2(C)C [drawing 1007] = label 1
Cc1cc2c(cc1Cc1ccc(C(=O)NCc3c(CO)cnc(C)c3O)o1)C(C)(C)CCC2(C)C = label 0
Cc1cc2c(cc1Cc1ccc(C(=O)NCC3CCCC(CNc4cccc(NCC5CCCO5)n4)C3)o1)C(C)(C)CCC2(C)C (stereo not drawn) = label 1
Cc1cc2c(cc1Cc1ccc(C(=O)NCc3cccc(NC(=O)N(Cc4ccccc4)c4ccccc4)c3)o1)C(C)(C)CCC2(C)C [drawing 1029] = label 0
Cc1cc2c(cc1Cc1ccc(C(=O)NCC3CCC(C(=O)O)CC3)o1)C(C)(C)CCC2(C)C (stereo not drawn) [drawing 1024] = label 1
Cc1cc2c(cc1Cc1ccc(C(=O)N(CCC3CCCN3C)Cc3ccc(Cl)cc3)o1)C(C)(C)CCC2(C)C (stereo not drawn) = label 0
Cc1cc2c(cc1Cc1ccc(C(=O)N3CCN(c4cnccn4)CC3)o1)C(C)(C)CCC2(C)C = label 0
Cc1cc2c(cc1Cc1ccc(C(=O)NC(C#N)c3ccc(F)cc3)o1)C(C)(C)CCC2(C)C (stereo not drawn) = label 0
Cc1cc2c(cc1Cc1ccc(C(=O)NC3Cc4ccccc4C3)o1)C(C)(C)CCC2(C)C = label 0
Cc1cc2c(cc1Cc1ccc(C(=O)NCc3cc(Cl)ccc3Cl)o1)C(C)(C)CCC2(C)C = label 1
Cc1cc2c(cc1Cc1ccc(C(=O)NCCCCCC(=O)O)o1)C(C)(C)CCC2(C)C = label 0
Cc1cc2c(cc1Cc1ccc(C(=O)NCc3ccc(-c4csnn4)cc3)o1)C(C)(C)CCC2(C)C [drawing 1013] = label 1
Cc1cc2c(cc1Cc1ccc(C(=O)NCc3cccs3)o1)C(C)(C)CCC2(C)C [drawing 1099] = label 1
Cc1cc2c(cc1Cc1ccc(C(=O)NCCc3cccc(Oc4ccccc4)c3)o1)C(C)(C)CCC2(C)C [drawing 1039] = label 0
Cc1cc2c(cc1Cc1ccc(C(=O)NCc3cccnc3)o1)C(C)(C)CCC2(C)C [drawing 1067] = label 1
Cc1cc2c(cc1Cc1ccc(C(=O)NCCCCCN3CCOCC3)o1)C(C)(C)CCC2(C)C = label 0
Cc1cc2c(cc1Cc1ccc(C(=O)NCc3ccccc3Sc3ccccc3CO)o1)C(C)(C)CCC2(C)C = label 1
Cc1cc2c(cc1Cc1ccc(C(=O)NCCCN3CCCCC3)o1)C(C)(C)CCC2(C)C [drawing 1050] = label 0
Cc1cc2c(cc1Cc1ccc(C(=O)NC(C)c3ccc([N+](=O)[O-])cc3)o1)C(C)(C)CCC2(C)C (stereo not drawn) [drawing 1238] = label 1
Cc1cc2c(cc1Cc1ccc(C(=O)NCCc3ccc(O)cc3)o1)C(C)(C)CCC2(C)C = label 1
Cc1cc2c(cc1Cc1ccc(C(=O)NCCc3ccccc3)o1)C(C)(C)CCC2(C)C [drawing 1079] = label 1
Cc1cc2c(cc1Cc1ccc(C(=O)NCCNCCNc3ccccc3)o1)C(C)(C)CCC2(C)C [drawing 1043] = label 0
Cc1cc2c(cc1Cc1ccc(C(=O)NC3CCCCC3Cc3nccc(NCC4CCCO4)n3)o1)C(C)(C)CCC2(C)C (stereo not drawn) = label 0
Cc1cc2c(cc1Cc1ccc(C(=O)NCCc3ccc(S(N)(=O)=O)cc3)o1)C(C)(C)CCC2(C)C [drawing 989] = label 1
Cc1cc2c(cc1Cc1ccc(C(=O)NC(CO)C(O)c3ccccc3)o1)C(C)(C)CCC2(C)C (stereo not drawn) = label 0
CCN(CCNC(=O)c1ccc(Cc2cc3c(cc2C)C(C)(C)CCC3(C)C)o1)c1cccc(C)c1 = label 1

Numbers sourced from patent US7101878B1.
